Recorded values, source ChEMBL document CHEMBL2321662.

The following compounds each carry a recorded IC50 for Cytochrome P450 2D6 (Homo sapiens).

OCC[C@]1(c2ccc(Cl)c(Cl)c2)CCCNC1 :: > 20 µM

Prompt: Sample OCC[C@]1(c2cc3ccccc3o2)CCCNC1 — what was its IC50?
Response: > 20 µM

Prompt: Sample CN1Cc2c(N)cccc2C(c2ccccc2)C1 (racemic) [NOMIFENSINE] — what was its IC50?
Response: > 20 µM

---

// reported IC50 for each item listed
tgt: Voltage-gated inwardly rectifying potassium channel KCNH2 (Homo sapiens, UniProt Q12809)
Sequence (Q12809 whole entry): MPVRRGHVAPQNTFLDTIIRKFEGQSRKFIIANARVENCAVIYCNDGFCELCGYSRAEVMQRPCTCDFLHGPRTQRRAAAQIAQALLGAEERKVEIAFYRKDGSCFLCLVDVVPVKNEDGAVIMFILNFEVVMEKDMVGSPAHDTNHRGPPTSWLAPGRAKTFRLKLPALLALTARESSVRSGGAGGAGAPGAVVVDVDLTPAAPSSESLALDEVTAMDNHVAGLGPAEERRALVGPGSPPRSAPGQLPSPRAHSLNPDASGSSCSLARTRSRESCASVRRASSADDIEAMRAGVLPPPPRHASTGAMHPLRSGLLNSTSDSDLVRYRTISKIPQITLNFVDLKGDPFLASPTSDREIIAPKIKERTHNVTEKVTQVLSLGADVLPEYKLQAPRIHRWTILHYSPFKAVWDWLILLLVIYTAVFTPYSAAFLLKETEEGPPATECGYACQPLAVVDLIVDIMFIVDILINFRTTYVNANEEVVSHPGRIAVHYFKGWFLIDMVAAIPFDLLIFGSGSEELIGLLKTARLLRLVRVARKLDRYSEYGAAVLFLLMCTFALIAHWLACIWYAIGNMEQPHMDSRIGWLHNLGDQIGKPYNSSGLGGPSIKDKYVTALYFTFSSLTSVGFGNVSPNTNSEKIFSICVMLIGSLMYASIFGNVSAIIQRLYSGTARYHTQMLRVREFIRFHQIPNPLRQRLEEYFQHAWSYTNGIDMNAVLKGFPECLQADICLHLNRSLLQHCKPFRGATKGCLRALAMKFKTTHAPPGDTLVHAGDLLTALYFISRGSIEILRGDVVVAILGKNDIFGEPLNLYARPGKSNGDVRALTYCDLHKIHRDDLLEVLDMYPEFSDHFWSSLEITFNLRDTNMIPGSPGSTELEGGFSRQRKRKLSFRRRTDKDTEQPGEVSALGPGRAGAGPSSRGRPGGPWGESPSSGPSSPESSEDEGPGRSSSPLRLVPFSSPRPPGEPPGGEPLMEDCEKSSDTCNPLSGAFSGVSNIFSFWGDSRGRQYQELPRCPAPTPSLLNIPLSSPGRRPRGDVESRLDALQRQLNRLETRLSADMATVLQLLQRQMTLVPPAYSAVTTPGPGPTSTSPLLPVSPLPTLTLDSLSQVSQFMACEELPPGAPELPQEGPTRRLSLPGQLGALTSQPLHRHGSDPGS
method.description: Inhibition of human ERG expressed in CHO-K1 cells by electrophysiological assay

# example entries with known answers
Clc1cccc(C2CC=CCNC2)c1 (stereo unspecified) :: > 33 µM
Clc1ccc(C2CC=CCNC2)cc1 (stereo unspecified) :: > 31 µM
OCC[C@@]1(c2ccc(Cl)c(Cl)c2)CCCNC1 :: > 33 µM

Prompt: Sample CN1Cc2c(N)cccc2C(c2ccccc2)C1 (racemic) — what was its IC50?
Response: > 27 µM

Prompt: Sample Cc1ccc(C2CC=CCNC2)cc1Cl (stereo unspecified) — what was its IC50?
Response: > 27 µM

Prompt: Sample OCC[C@]1(c2ccc(Cl)c(Cl)c2)CCCNC1 — what was its IC50?
Response: > 33 µM

---

// reported pKi for each item listed
tgt: Sodium-dependent noradrenaline transporter (Homo sapiens, UniProt P23975)
Sequence (P23975 whole entry): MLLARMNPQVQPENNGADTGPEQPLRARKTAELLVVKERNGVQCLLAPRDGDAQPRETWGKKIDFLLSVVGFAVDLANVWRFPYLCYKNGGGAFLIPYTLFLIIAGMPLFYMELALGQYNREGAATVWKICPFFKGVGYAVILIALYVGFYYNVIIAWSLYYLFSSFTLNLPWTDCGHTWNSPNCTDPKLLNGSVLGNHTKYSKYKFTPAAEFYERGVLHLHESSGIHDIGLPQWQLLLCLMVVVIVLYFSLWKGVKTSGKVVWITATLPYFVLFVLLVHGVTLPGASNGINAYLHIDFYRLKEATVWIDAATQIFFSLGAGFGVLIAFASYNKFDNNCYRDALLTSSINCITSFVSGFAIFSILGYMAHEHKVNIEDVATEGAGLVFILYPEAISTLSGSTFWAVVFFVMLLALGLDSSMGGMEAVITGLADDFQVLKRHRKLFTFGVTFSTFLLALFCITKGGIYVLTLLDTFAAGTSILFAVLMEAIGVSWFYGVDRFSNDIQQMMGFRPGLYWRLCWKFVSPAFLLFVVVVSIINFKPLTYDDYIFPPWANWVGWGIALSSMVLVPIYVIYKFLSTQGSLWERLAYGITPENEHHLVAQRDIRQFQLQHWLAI
method.description: Inhibition of human recombinant NET expressed in HEK cells
Would you please state pKi, meaning minus log10 of the concentration in mol/L, as a bare number?

Clc1ccc(C2CC=CCNC2)cc1Cl (racemic) :: 7.18
CN1CC=CCC(c2cc3ccccc3o2)C1 (stereo not drawn) :: 6.92

In the following, a different compound is considered.
Prompt: Sample Cc1ccc(C2CC=CCNC2)cc1Cl (stereo not drawn) — what was its pKi?
Response: 7.08
